Target: h FPR2 (Homo sapiens, UniProt P25090)
Sequence (P25090 1-351): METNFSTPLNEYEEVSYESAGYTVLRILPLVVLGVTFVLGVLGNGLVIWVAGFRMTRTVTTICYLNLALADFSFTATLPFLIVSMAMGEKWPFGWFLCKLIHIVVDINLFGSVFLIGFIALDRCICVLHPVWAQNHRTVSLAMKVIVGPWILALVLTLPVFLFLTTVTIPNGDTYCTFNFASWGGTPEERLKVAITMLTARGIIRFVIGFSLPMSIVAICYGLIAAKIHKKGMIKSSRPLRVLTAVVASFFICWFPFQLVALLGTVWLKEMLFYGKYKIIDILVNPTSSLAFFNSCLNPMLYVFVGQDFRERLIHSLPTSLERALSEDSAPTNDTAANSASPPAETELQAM
Assay: Agonistic activity in hFPR2-Aq-CHO cells (FLIPR Calcium 5 fluorescence assay)
Conditions: 11 point half log dilution, final assay concentration from 10µM
pEC50: −log10 of the molar value. Structures can show the parent of a compound that is named as a salt.
ASSAY_ENDPOINT: pEC50

Worked examples, 4 compounds total:
compound="COc1ccc([C@@H]2CN(C(=O)C3CNC3)CC[C@H]2NC(=O)Nc2ccccc2)nc1 (racemic) [Ex-165]" assay_result=7.96
compound="COc1ccc([C@@H]2CN(CC(C)(C)O)CC[C@H]2NC(=O)Nc2cc(C)ns2)nc1 (relative stereo) [Ex-121]" assay_result=8.92
compound="COc1ccc([C@@H]2CN(C(=O)c3ccc(C)nc3)CC[C@H]2NC(=O)Nc2ccc(Cl)cc2)nc1 (single isomer, unassigned) [Ex-55]" assay_result=7.40
compound="O=C(Nc1ccc(Cl)cc1)N[C@@H]1CCN(CC2CCNCC2)C[C@H]1c1ccc(Cl)s1 (single isomer, unassigned) [Ex-83, dihydrochloride]" assay_result=9.70

a: COc1ccc([C@@H]2CN(C(=O)C3CCNCC3)CC[C@H]2NC(=O)Nc2ccc(Cl)cc2)nc1 (relative stereo) [Ex-88]
b: O=C(Nc1ccc(Cl)cc1)N[C@@H]1CCN(CC2CCOCC2)C[C@H]1c1ccc(Cl)s1 (single isomer, unassigned) [Ex-85]
Request: Which of the two gives a bigger number for pEC50: a or b ? To answer, give the label that identifies your chosen option.
Result: a
(a: 8.92, b: 7.85)
